- assay-remarks: Measurement of log P values by HPLC on reversed phase columns (methods [a] pH 2.3, [b] pH 2.7, [c] pH 7.8)
- Assay type: physicochemical
- condition-context: HPLC reversed phase, method [b] (pH 2.7)
- Experimental: Measurement of log P-Values: Measurement of log P Values was Performed According EEC Directive 79/831 Annex V.A8 by HPLC (High Performance Liquid Chromatography) on reversed phase columns with the following methods: ^[a] […]
Would you kindly list logP for each of these molecules?

# logP (molecule: O=C(N[C@@H]1CC[C@H]1c1ccc(F)cc1C(F)(F)F)c1cccnc1 (relative stereo) ) is 2.41^[b]

# logP (molecule: O=C(N[C@@H]1CC[C@H]1c1ccccc1Cl)c1ccccc1[N+](=O)[O-] (relative stereo) ) is 2.92^[b]

# logP (molecule: O=C(N[C@@H]1C[C@@H]1c1ccc(Cl)cc1Cl)c1sccc1I (relative stereo) ) is 3.78^[b]

# logP (molecule: O=C(N[C@@H]1CC[C@@H]1c1cc(F)ccc1C(F)(F)F)c1cccnc1C(F)(F)F (relative stereo) ) is 3.06^[b]

# logP (molecule: O=C(NC1CCC1c1ccc(Cl)cc1Cl)c1c(F)cccc1F (centres unmarked) [Compound 473] ) is 3.36^[b]

# logP (molecule: O=C(N[C@@H]1CC[C@@H]1c1ccc(F)cc1C(F)(F)F)c1ccccc1C(F)(F)F (relative stereo) ) is 3.51^[b]

# logP (molecule: O=C(NC1CC1c1ccc(Cl)cc1Cl)c1cccnc1Cl (centres unmarked) ) is 2.62^[b]

# logP (molecule: O=C(NC1CCCCC1c1ccccc1C(F)(F)F)c1cccnc1C(F)(F)F (centres unmarked) [Example 385] ) is 3.61^[b]

----------
- assay-remarks: Measurement of log P values by HPLC on reversed phase columns (methods [a] pH 2.3, [b] pH 2.7, [c] pH 7.8)
- Assay type: physicochemical
- condition-context: method [b], HPLC reversed phase, pH 2.7
assay-endpoint: logP

# logP (compound: CCOc1nn(C)cc1C(=O)N[C@@H]1CCC[C@H]1c1ccc(F)c(F)c1 (relative stereo) [Example 127] ) is 3.13^[b]

# logP (compound: O=C(NC1CC1c1ccc(Cl)cc1Cl)c1ccccc1F (stereo not drawn) [Example 205] ) is 3.66^[b]

# logP (compound: Cc1cc(C(=O)N(C2CC2)C2CCCC2c2ccc(Cl)cc2Cl)c(C)o1 (stereo not drawn) [Example 175] ) is 5.39^[b]

# logP (compound: CN(C(=O)c1c(C(F)F)nn(C)c1Cl)C1CCCCC1c1ccccc1 (stereo not drawn) [Example 197] ) is 3.63^[b]

# logP (compound: Cc1cc(C(=O)N(C2CC2)C2CCCC2c2ccccc2Cl)c(C)o1 (stereo not drawn) [Example 176] ) is 4.95^[b]

# logP (compound: Cc1nc(C(F)F)c(C(=O)N(C2CC2)C2CCCCC2c2ccccc2Cl)s1 (stereo not drawn) [Example 171] ) is 4.67^[b]

# logP (compound: O=C(NC1CC1c1ccc(Cl)cc1)c1occc1Br (stereo not drawn) [Example 204] ) is 3.04^[b]

# logP (compound: O=C(NC1CC1c1ccccc1C(F)(F)F)c1ccccc1C(F)(F)F (stereo not drawn) [Example 233] ) is 3.29^[b]

# logP (compound: Cn1cc(C(=O)N[C@@H]2CCC[C@H]2c2ccc(F)c(F)c2)c(=O)[nH]1 (relative stereo) [Example 135] ) is 2.18^[b]

# logP (compound: Cn1nc(C(F)F)c(C(=O)NC2CC2c2cccc(F)c2)c1F (stereo not drawn) [Example 187] ) is 2.59^[b]

# logP (compound: Cn1cc(C(=O)NC2CC2c2ccccc2Cl)c(C(F)F)n1 (stereo not drawn) [Example 231] ) is 2.45^[b]

# logP (compound: CCc1nn(C)c(F)c1C(=O)N(C1CC1)C1CCCC1c1ccc(Cl)cc1Cl (stereo not drawn) [Example 160] ) is 4.65^[b]

# logP (compound: Cn1nc(C(F)F)c(C(=O)NC2CC2c2ccccc2C(F)(F)F)c1Cl (stereo not drawn) [Example 193] ) is 3.15^[b]

# logP (compound: Cc1nc(C(F)F)c(C(=O)N(C2CC2)C2CCCC2c2ccccc2Cl)s1 (stereo not drawn) [Example 174] ) is 4.51^[b]

# logP (compound: Cn1nc(C(F)F)c(C(=O)NC2CC2c2ccc(F)cc2)c1Cl (stereo not drawn) [Example 192] ) is 2.75^[b]

# logP (compound: CCc1nn(C)c(F)c1C(=O)N(C1CC1)C1CCCCC1c1ccccc1 (stereo not drawn) [Example 144] ) is 3.83^[b]

# logP (compound: Cn1nc(C(F)F)c(C(=O)NC2CC2c2ccccc2C(F)(F)F)c1F (stereo not drawn) [Example 189] ) is 3.00^[b]

# logP (compound: Cn1cc(C(=O)N(C2CC2)C2CCCCC2c2ccccc2)c(C(F)(F)F)n1 (stereo not drawn) [Example 142] ) is 3.96^[b]

Data origin: patent US20160075653A1
